# assay system: T1, StrepII-tagged Mesothelin (human mesothelin isoform 2, NP_037536, with C-terminal strepII-tag) (human, UniProt Q13421-1 296-606, limits assumed)
# T1 construct: also called Mesothelin-strep; soluble antigen
# T1 sequence (Q13421 other isoform, or with tags, fused parts or gaps limits assumed): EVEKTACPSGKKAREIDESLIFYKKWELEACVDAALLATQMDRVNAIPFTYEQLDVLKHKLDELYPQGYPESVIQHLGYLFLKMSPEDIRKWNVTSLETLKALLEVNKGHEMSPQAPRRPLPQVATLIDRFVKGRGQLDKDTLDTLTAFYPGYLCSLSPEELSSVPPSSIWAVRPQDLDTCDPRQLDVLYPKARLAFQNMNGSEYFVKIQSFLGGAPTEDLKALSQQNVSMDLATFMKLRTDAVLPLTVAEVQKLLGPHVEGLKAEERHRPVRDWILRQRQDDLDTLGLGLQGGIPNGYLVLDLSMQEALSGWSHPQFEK
# measurement description: SPR (Biacore T200), mAb from 293T supernatant captured by anti-human Fc-gamma IgG, Mesothelin-strep 10 to 1.25 nM as analyte, 25 °C, 1:1 model
The binders listed here are annotated with their kon.

[
  {
    "binder": "huMN5-3 (antibody, V domains shown, No sheet says in words that huMN5b is huMN5-3) VH: QVQLQQSGAELVKPGASLKLSCKASGYTFTSYWMHWVRQAPGQGLEWIGAIHPNSDNTIYYQKFKSRFTITVDKSTSTAYMQLSSLTSEDTAVYYCAIIITPVVPKFDYWGQGTTVTVSS VL: DIVMTQSPDSLAVSLGERATITCKSSHDVGTSLAWYQQKPGQPPKLLIYWASTRESGVPDRFSGSGSGTDFTLTISSLQAEDVAVYYCQQYSSYPLTFGQGTKLEIK",
    "kon [M⁻¹ s⁻¹]": "1.01e+06"
  },
  {
    "binder": "huMN3-1 (antibody, V domains shown) VH: QVQLQQSGAELVKPGASMKLSCKASGYTFTSYWMHWVRQAPGQGLEWIGAIHPNSDNTIYYQKFKSRVTLTVDKSISTAYMQLSSLTSEDTAVYYCAIIITPVVPKFDYWGQGTTVTVSS VL: DIQMTQSPSFLSASVGDRVTITCRASHDVGTSLAWYQQKPGQAPKLLIYWASTLQTGVPSRFSGSGSGTEFTLTISSLQPEDFATYYCQQYSSYPLTFGPGTTVDMK",
    "kon [M⁻¹ s⁻¹]": "1.42e+06"
  },
  {
    "binder": "huMN5-2 (antibody, V domains shown, No sheet says in words that huMN5a is huMN5-2) VH: QVQLQQSGAELVKPGASLKLSCKASGYTFTSYWMHWVRQAPGQGLEWIGAIHPNSDNTIYYQKFKSRFTITVDKSTSTAYMQLSSLTSEDTAVYYCAIIITPVVPKFDYWGQGTTVTVSS VL: DIVMTQSSSFMSASVGDRVSITCKASHDVGTSLAWYQQKPGQSPKLLIYWASTRQTGVPDRFSGSGSGTDFTLTISSVQSEDVATYFCQQYSSYPLTFGQGTKLEIK",
    "kon [M⁻¹ s⁻¹]": "1.24e+06"
  },
  {
    "binder": "parental anti-Mesothelin mouse mAb MN, produced as chimeric full-length IgG1 antibody with human constant regions (antibody, V domains shown, also called VH-MN (parental mouse); parental chimeric antibody) VH: QVQLQQPGAELVKPGASMKLSCKASGYTFTSYWMHWVKQRPGQGLEWIGMIHPNSDNTIYYEKFKSKATLTVDKSSSTAYMQLSSLTSEDSAVYYCAIIITPVVPKFDYWGQGTTLTVSS VL: DIVMTQSHQFMSTSVGDRVSVTCKASHDVGTSVAWYQQKPGQSPKLLIYWASTRHTGVPDRFTGSGSGTDFTLTISNVQSEDLADYFCQQYSSYPLTFGAGTKLELK",
    "kon [M⁻¹ s⁻¹]": "1.31e+06"
  }
]
